Measured values drawn from ChEMBL document CHEMBL1649165 for this set.

# Tested on: Fusarium solani
# measurement protocol: Antimicrobial activity against Fusarium solani by broth microdilution method
# Type: functional
*1 amine or outer side, *2 acyl side, *3 side chain or, on linkers, in order; H or OH if unused. Where a SMILES comes first, the peptide text is derived from it. Bridges are numbered along the chain shown (N, C = ends). [ ]: non-standard residue; d: D form. The star is where a group is joined. hTyr(3S-OH,4S-OH,3'-OSO3H) = N[C@H](C(=O)O)[C@H](O)[C@@H](O)c1ccc(O)c(OS(=O)(=O)O)c1; Orn(4R-OH,5R-OH) = O=C([C@H](C[C@@H](O)[C@@H](O)N[*:3])N[*:1])[*:2]; Pro(3S-OH,4S-Me) = C[C@H]1CN[C@H](C(=O)O)[C@H]1O; X1 = CCCCCOc1ccc(-c2cc(-c3ccc(C(=O)*)cc3)no2)cc1; Gln(3R-OH) = NC(=O)C[C@@H](O)[C@H](N)C(=O)O; Hyp = O=C(O)[C@@H]1C[C@@H](O)CN1
experimental endpoint: MIC50

compound	result
CC[C@@H]([C@H](C)O)n1ncn(-c2ccc(N3CCN(c4ccc(OC[C@@H]5CO[C@@](Cn6cncn6)(c6ccc(F)cc6F)C5)cc4)CC3)cc2)c1=O [POSACONAZOLE]	> 8 mg/L
CCC(C)n1ncn(-c2ccc(N3CCN(c4ccc(OCC5COC(Cn6cncn6)(c6ccc(Cl)cc6Cl)O5)cc4)CC3)cc2)c1=O (stereo not given) [ITRACONAZOLE]	> 8 mg/L
CCCCCOc1ccc(-c2cc(-c3ccc(C(=O)N[C@H]4C[C@@H](O)[C@@H](O)NC(=O)[C@@H]5[C@@H](O)[C@@H](C)CN5C(=O)[C@H]([C@H](O)CC(N)=O)NC(=O)[C@H]([C@H](O)[C@@H](O)c5ccc(O)c(OS(=O)(=O)O)c5)NC(=O)[C@@H]5C[C@@H](O)CN5C(=O)[C@H]([C@@H](C)O)NC4=O)cc3)no2)cc1 [MICAFUNGIN] (X1-[Orn(4R-OH,5R-OH)]T[Hyp][hTyr(3S-OH,4S-OH,3'-OSO3H)][Gln(3R-OH)][Pro(3S-OH,4S-Me)]; lactam 1-C)	> 16 mg/L
C[C@@H](c1ncncc1F)[C@](O)(Cn1cncn1)c1ccc(F)cc1F [VORICONAZOLE]	> 8 mg/L
C[C@@H]1[C@H](O)[C@@H](C)/C=C/C=C/C=C/C=C/C=C/C=C/C=C/[C@H](O[C@@H]2O[C@H](C)[C@@H](O)[C@H](N)[C@@H]2O)C[C@@H]2O[C@](O)(C[C@@H](O)C[C@@H](O)[C@H](O)CC[C@@H](O)C[C@@H](O)CC(=O)O[C@H]1C)C[C@H](O)[C@H]2C(=O)O [AMPHOTERICIN B]	1 mg/L

* * *

Measured MIC50 by item
# Test system: Fusarium proliferatum
# measurement protocol: Antimicrobial activity against Fusarium proliferatum by broth microdilution method
# Format: functional
experimental endpoint: MIC50 (µg/mL)

compound	relation qualifier	quantitative readout
CC[C@H](C)C[C@H](C)CCCCCCCCC(=O)N[C@H]1C[C@@H](O)[C@@H](NCCN)NC(=O)[C@@H]2[C@@H](O)CCN2C(=O)[C@H]([C@H](O)CCN)NC(=O)[C@H]([C@H](O)[C@@H](O)c2ccc(O)cc2)NC(=O)[C@@H]2C[C@@H](O)CN2C(=O)[C@H]([C@@H](C)O)NC1=O	>	16
CCC(C)n1ncn(-c2ccc(N3CCN(c4ccc(OCC5COC(Cn6cncn6)(c6ccc(Cl)cc6Cl)O5)cc4)CC3)cc2)c1=O (centres undefined)	>	8
C[C@@H](c1ncncc1F)[C@](O)(Cn1cncn1)c1ccc(F)cc1F	=	8
C[C@@H]1[C@H](O)[C@@H](C)/C=C/C=C/C=C/C=C/C=C/C=C/C=C/[C@H](O[C@@H]2O[C@H](C)[C@@H](O)[C@H](N)[C@@H]2O)C[C@@H]2O[C@](O)(C[C@@H](O)C[C@@H](O)[C@H](O)CC[C@@H](O)C[C@@H](O)CC(=O)O[C@H]1C)C[C@H](O)[C@H]2C(=O)O	=	2
